Documented DC50 across a set of compounds
# target-or-test-system: Protein cereblon/Histone acetyltransferase p300 (Homo sapiens, UniProt Q09472+Q96SW2)
# Sequence (Q09472 whole entry): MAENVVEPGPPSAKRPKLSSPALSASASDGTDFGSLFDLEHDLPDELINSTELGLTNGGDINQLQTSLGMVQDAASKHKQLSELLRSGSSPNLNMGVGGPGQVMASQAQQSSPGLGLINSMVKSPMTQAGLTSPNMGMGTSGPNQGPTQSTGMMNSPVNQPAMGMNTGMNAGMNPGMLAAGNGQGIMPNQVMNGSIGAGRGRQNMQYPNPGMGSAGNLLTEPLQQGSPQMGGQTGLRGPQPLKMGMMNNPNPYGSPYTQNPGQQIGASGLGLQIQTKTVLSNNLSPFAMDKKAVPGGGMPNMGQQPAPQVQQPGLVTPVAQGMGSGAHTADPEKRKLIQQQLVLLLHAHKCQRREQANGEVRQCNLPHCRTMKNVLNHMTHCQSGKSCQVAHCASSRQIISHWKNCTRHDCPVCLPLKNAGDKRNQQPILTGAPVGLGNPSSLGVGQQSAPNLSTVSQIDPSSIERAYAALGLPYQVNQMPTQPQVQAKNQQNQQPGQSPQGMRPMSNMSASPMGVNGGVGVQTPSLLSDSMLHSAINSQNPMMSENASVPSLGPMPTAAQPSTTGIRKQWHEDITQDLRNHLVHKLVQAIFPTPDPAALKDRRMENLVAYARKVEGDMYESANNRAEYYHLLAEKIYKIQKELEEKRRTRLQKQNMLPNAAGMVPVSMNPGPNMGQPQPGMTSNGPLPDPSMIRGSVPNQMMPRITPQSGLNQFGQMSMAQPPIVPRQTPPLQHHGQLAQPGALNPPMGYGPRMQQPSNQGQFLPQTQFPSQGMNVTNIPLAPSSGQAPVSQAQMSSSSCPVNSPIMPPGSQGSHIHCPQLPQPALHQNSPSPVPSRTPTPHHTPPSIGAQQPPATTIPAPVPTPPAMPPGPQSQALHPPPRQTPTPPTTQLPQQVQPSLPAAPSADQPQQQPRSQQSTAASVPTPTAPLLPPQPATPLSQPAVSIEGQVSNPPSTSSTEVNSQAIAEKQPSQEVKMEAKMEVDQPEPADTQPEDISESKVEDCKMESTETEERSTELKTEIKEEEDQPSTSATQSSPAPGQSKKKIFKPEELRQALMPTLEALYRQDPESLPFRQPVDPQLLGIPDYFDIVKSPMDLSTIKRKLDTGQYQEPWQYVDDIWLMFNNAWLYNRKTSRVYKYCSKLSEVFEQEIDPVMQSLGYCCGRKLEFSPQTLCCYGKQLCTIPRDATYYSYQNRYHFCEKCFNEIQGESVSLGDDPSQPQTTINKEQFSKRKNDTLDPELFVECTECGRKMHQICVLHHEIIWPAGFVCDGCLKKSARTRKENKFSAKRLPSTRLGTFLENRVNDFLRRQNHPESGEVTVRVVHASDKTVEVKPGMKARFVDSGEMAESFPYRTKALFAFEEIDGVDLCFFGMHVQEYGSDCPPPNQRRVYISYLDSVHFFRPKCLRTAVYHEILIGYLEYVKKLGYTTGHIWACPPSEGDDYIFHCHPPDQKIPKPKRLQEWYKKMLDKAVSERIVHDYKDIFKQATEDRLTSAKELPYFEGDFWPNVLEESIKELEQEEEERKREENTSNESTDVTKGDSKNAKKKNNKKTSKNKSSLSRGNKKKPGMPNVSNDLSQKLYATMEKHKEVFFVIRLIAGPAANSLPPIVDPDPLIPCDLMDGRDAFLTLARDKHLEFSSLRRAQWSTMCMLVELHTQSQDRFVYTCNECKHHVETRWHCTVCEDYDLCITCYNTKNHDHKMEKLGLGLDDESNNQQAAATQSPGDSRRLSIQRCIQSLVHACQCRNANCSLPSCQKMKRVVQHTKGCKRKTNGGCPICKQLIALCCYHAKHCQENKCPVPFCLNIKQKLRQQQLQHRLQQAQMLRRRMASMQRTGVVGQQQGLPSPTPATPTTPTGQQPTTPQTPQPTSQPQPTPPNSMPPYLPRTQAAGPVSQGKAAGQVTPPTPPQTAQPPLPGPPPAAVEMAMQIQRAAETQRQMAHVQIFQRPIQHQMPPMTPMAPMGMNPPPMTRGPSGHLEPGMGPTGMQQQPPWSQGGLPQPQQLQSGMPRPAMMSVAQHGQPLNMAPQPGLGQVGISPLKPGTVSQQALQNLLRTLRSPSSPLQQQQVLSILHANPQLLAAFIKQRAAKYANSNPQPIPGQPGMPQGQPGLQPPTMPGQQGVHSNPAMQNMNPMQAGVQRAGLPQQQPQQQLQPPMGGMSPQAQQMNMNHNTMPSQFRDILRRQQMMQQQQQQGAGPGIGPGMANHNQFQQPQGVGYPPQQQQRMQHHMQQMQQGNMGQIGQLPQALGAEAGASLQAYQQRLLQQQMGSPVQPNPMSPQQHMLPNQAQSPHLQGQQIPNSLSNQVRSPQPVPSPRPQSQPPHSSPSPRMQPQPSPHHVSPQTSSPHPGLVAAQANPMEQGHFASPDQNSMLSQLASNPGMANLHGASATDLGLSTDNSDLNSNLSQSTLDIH
# Sequence (Q96SW2 whole entry): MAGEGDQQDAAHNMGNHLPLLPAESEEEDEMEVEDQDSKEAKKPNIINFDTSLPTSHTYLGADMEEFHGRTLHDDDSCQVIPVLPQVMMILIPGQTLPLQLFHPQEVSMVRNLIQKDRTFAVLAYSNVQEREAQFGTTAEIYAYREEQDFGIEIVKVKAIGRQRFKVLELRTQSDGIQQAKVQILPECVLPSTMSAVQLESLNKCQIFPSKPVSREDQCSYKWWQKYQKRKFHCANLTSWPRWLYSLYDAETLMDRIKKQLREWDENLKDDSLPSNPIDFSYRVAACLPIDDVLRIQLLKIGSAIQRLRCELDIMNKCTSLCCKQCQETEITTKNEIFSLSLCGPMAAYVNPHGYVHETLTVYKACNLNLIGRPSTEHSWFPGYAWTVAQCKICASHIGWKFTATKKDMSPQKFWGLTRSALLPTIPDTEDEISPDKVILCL
# assay: PROTAC activity at p300/CRBN in human VCaP cells assessed as protein degradation incubated for 4 hrs by Western blot analysis
# Type: cell-based

These recorded examples may help you get a feel for the data.
| compound | measure | result |
| --- | --- | --- |
| CC(=O)N1CCc2c(c(N3CCCc4cc(-c5cnn(C)c5)c(C(F)F)cc43)nn2C2CCN(C(=O)c3ccc4c(c3)C(=O)N(C3CCC(=O)NC3=O)C4=O)CC2)C1 (stereo not drawn) | DC50 | > 1000 nM |
| CC(=O)N1CCc2c(c(N3CCCc4cc(-c5cnn(C)c5)c(C(F)F)cc43)nn2C2CCN(C(=O)c3cccc4c3C(=O)N(C3CCC(=O)NC3=O)C4=O)CC2)C1 (stereo not drawn) | DC50 | > 1000 nM |

Alright, here's another compound for you.
# compound CC(=O)N1CCc2c(c(N3CCCc4cc(-c5cnn(C)c5)c(C(F)F)cc43)nn2C2CCN(C3CC4(CCN(c5ccc6c(c5)C(=O)N(C5CCC(=O)NC5=O)C6=O)CC4)C3)CC2)C1 (stereo not drawn) ; its DC50 = 0.4 nM
